- target or system: T1, 4H3162-bH
- T1 chain: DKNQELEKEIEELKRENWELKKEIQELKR
- experiment: two-hybrid library CCNG1;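 also: natural log of median RNA to DNA barcode read ratio; higher means stronger binding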
just bin them by interaction score: bottom (below -0.7), middle (-0.7 to below 0.5), top (0.5 or more)

binder	class name
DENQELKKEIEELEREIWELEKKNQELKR [4H1544-bH]	top
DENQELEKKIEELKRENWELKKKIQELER [4H1373-bH]	top
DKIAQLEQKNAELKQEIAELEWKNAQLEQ [4H2503-bA]	bottom
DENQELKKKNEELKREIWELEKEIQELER [4H1985-bH]	bottom
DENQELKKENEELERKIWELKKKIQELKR [4H1710-bH]	middle
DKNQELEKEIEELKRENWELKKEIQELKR [4H3162-bH]	top
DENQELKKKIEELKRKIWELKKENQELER [4H1899-bH]	middle
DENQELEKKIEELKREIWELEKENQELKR [4H1348-bH]	middle
